- TARGET_ENTITY: UniProt P17252
- PROTOCOL_NOTES: Displacement of [20-3H]PDBU from recombinant PKCalpha in presence of phosphatidylserine
REPORTED_ENDPOINT: pKi
Entry type: numeric. Quantity: pKi, the -log10 of concentration in molar units.

In the examples that follow, each entry is paired with its recorded pKi.
[[record]]
compound = "CCCCCCC/C=C1\\CC(CO)(COC(=O)CCc2ccccc2)OC1=O (stereo not given)"
reported = 7.74

[[record]]
compound = "CCCCCCCCC/C=C1/CC(CO)(COC(=O)c2ccccc2)OC1=O (stereo not given)"
reported = 8.05

[[record]]
compound = "CC(C)C(CC(=O)OCC1(CO)C/C(=C\\c2ccc(O)cc2)C(=O)O1)C(C)C (stereo not given)"
reported = 7.72

[[record]]
compound = "CCCCCCCCC/C=C1\\CC(CO)(COC(=O)c2ccccc2)OC1=O (stereo not given)"
reported = 7.85


Given CCCCCCCCC/C=C1/CC(CO)(COC(=O)C2CCCCC2)OC1=O (stereo not given) , report its pKi on UniProt P17252. 8.30

Given COc1ccc(/C=C2\CC(CO)(COC(=O)CC(C(C)C)C(C)C)OC2=O)cc1 (stereo not given) , report its pKi on UniProt P17252. 8.15

Given CC(C)C(C/C=C1/CC(CO)(COC(=O)c2ccccc2O)OC1=O)C(C)C (stereo not given) , report its pKi on UniProt P17252. 7.52

Given CC(C)C(C/C=C1\CC(CO)(COC(=O)c2cccc(O)c2)OC1=O)C(C)C (stereo not given) , report its pKi on UniProt P17252. 6.17

Given CC(C)C(C/C=C1\CC(CO)(COC(=O)c2ccccc2)OC1=O)C(C)C (stereo not given) , report its pKi on UniProt P17252. 7.55

Given COc1ccccc1C(=O)OCC1(CO)C/C(=C/CC(C(C)C)C(C)C)C(=O)O1 (stereo not given) , report its pKi on UniProt P17252. 7.64

---

Recorded pKi by entry
- TARGET_ENTITY: Protein kinase C alpha type (Homo sapiens)
- PROTOCOL_NOTES: Displacement of [20-3H]PDBU from recombinant PKCalpha in presence of phosphatidylserine
Entry type: numeric. Quantity: pKi, the -log10 of concentration in molar units.

In the examples that follow, each entry is paired with its recorded pKi.
[[record]]
molecule = "COc1cccc(C(=O)OCC2(CO)C/C(=C\\CC(C(C)C)C(C)C)C(=O)O2)c1 (stereo not given)"
target_entity = "Protein kinase C alpha type (Homo sapiens)"
reported_endpoint = "pKi"
reported = 7.41

[[record]]
molecule = "CC(C)C(C/C=C1/CC(CO)(COC(=O)c2ccccc2)OC1=O)C(C)C (stereo not given)"
target_entity = "Protein kinase C alpha type (Homo sapiens)"
reported_endpoint = "pKi"
reported = 7.80

[[record]]
molecule = "CC(C)C(C/C=C1/CC(CO)(COC(=O)C2CCCCC2)OC1=O)C(C)C (stereo not given)"
target_entity = "Protein kinase C alpha type (Homo sapiens)"
reported_endpoint = "pKi"
reported = 8.10

[[record]]
molecule = "CCCCCC/C=C1\\CC(CO)(COC(=O)CCCc2ccccc2)OC1=O (stereo not given)"
target_entity = "Protein kinase C alpha type (Homo sapiens)"
reported_endpoint = "pKi"
reported = 7.57


Note: attention shifts to another entry.
Kindly indicate its recorded pKi. Item: CCCCCC/C=C1/CC(CO)(COC(=O)CCCc2ccccc2)OC1=O (stereo not given) 7.77

---

- TARGET_ENTITY: Protein kinase C alpha type (Homo sapiens, UniProt P17252)
- PROTOCOL_NOTES: Displacement of [20-3H]PDBU from recombinant PKCalpha in presence of phosphatidylserine
REPORTED_ENDPOINT: Ki (nM)
Unit nM implied. Number only.

In the examples that follow, each entry is paired with its recorded Ki.
[[record]]
molecule = "CC(C)C(C/C=C1\\CC(CO)(COC(=O)c2ccccc2O)OC1=O)C(C)C (stereo not given)"
result_unit = "nM"
reported = 67

[[record]]
molecule = "CC(C)C(CC(=O)OCC1(CO)C/C(=C\\CCc2ccccc2)C(=O)O1)C(C)C (stereo not given)"
result_unit = "nM"
reported = 9

[[record]]
molecule = "COc1cccc(/C=C2\\CC(CO)(COC(=O)CC(C(C)C)C(C)C)OC2=O)c1 (stereo not given)"
result_unit = "nM"
reported = 12

[[record]]
molecule = "COc1ccc(C(=O)OCC2(CO)C/C(=C/CC(C(C)C)C(C)C)C(=O)O2)cc1 (stereo not given)"
result_unit = "nM"
reported = 18

[[record]]
molecule = "CC(C)C(C/C=C1/CC(CO)(COC(=O)c2ccc(O)cc2)OC1=O)C(C)C (stereo not given)"
result_unit = "nM"
reported = 983


Kindly indicate its recorded Ki. Item: CC(C)C(CC(=O)OCC1(CO)C/C(=C\c2ccccc2)C(=O)O1)C(C)C (stereo not given) 12

Kindly indicate its recorded Ki. Item: COc1cccc(C(=O)OCC2(CO)C/C(=C/CC(C(C)C)C(C)C)C(=O)O2)c1 (stereo not given) 24

Kindly indicate its recorded Ki. Item: CCCCCCCC/C=C1\CC(CO)(COC(=O)Cc2ccccc2)OC1=O (stereo not given) 44

Kindly indicate its recorded Ki. Item: COc1ccccc1C(=O)OCC1(CO)C/C(=C\CC(C(C)C)C(C)C)C(=O)O1 (stereo not given) 73

Kindly indicate its recorded Ki. Item: CCCCCCCCC/C=C1\CC(CO)(COC(=O)C2CCCCC2)OC1=O (stereo not given) 9

---

Recorded log10 Ki by entry
- TARGET_ENTITY: Protein kinase C alpha type (Homo sapiens, UniProt P17252)
- PROTOCOL_NOTES: Displacement of [20-3H]PDBU from recombinant PKCalpha in presence of phosphatidylserine
Note: values are log10 of Ki expressed in nM.

In the examples that follow, each entry is paired with its recorded log10 Ki.
[[record]]
compound = "CC(C)C(CC(=O)OCC1(CO)C/C(=C\\c2ccccc2O)C(=O)O1)C(C)C (stereo not given)"
reported_endpoint = "log10 Ki"
reported = 1.34

[[record]]
compound = "COc1ccc(C(=O)OCC2(CO)C/C(=C\\CC(C(C)C)C(C)C)C(=O)O2)cc1 (stereo not given)"
reported_endpoint = "log10 Ki"
reported = 1.56

[[record]]
compound = "CCCCCCCC/C=C1/CC(CO)(COC(=O)Cc2ccccc2)OC1=O (stereo not given)"
reported_endpoint = "log10 Ki"
reported = 1.65


Kindly indicate its recorded log10 Ki. Item: CCCCCCC/C=C1/CC(CO)(COC(=O)CCc2ccccc2)OC1=O (stereo not given) 1.15

Kindly indicate its recorded log10 Ki. Item: CC(C)C(C/C=C1\CC(CO)(COC(=O)c2ccc(O)cc2)OC1=O)C(C)C (stereo not given) 3.38

Kindly indicate its recorded log10 Ki. Item: COc1ccccc1/C=C1\CC(CO)(COC(=O)CC(C(C)C)C(C)C)OC1=O (stereo not given) 1.20

Kindly indicate its recorded log10 Ki. Item: CC(C)C(CC(=O)OCC1(CO)C/C(=C\c2cccc(O)c2)C(=O)O1)C(C)C (stereo not given) 1.23

Kindly indicate its recorded log10 Ki. Item: CC(C)C(CC(=O)OCC1(CO)C/C(=C\Cc2ccccc2)C(=O)O1)C(C)C (stereo not given) 1.15

Kindly indicate its recorded log10 Ki. Item: CC(C)C(C/C=C1/CC(CO)(COC(=O)c2cccc(O)c2)OC1=O)C(C)C (stereo not given) 2.61

Kindly indicate its recorded log10 Ki. Item: CC(C)C(C/C=C1\CC(CO)(COC(=O)C2CCCCC2)OC1=O)C(C)C (stereo not given) 1.00

Provenance of the data: ChEMBL document CHEMBL1147823
